This collection of values is drawn from ChEMBL document CHEMBL1156071.

Tested on: Mus musculus
Test: Cmax in mouse at 10 mg/kg, po
Format: ADME, organism-based
Set-up: dose 10 mg/kg, route oral
Conditions: in vivo
Assay endpoint: Cmax (µM)
Give the quantity in µM, number only.

Measured Cmax of CCOc1ccc(Cc2cc([C@@H]3OC(OC)[C@@H](O)[C@H](O)[C@H]3O)ccc2Cl)cc1 (mixture of isomers; 7c) : 6.49

====

Assay: Tmax in mouse at 1 mg/kg, iv
Type: ADME, organism-based
Parameters: dose 1 mg/kg, route intravenous
Details: in vivo
Assay endpoint: Tmax (min)
Dear colleague, please return just the value in min, with no unit written.

What the record says about CCOc1ccc(Cc2cc([C@@H]3OC(OC)[C@@H](O)[C@H](O)[C@H]3O)ccc2Cl)cc1 (mixture of isomers; 7a) : Tmax is 22.8
